Source of measurements: patent US10173968B2

System: VRE
Experiment: Antibacterial MIC, double-dilution method
Type: cell-based
Conditions: Enterococcus, strain D, Gram-positive, range 0.5 to 500 μM, read-out: MIC

- compound: "Cl.Cl.N=C(N)N/N=C/c1ccc(-c2cccc(/C=N/NC(=N)N)c2)cc1 [Compound 3B, dihydrochloride]"
  experimentalTarget: "VRE"
  MIC (µM): 3.9
- compound: "NCC[C@H](O)C(=O)N[C@@H]1C[C@H](N)[C@@H](O[C@H]2O[C@H](CN)[C@@H](O)[C@H](O)[C@H]2O)[C@H](O)[C@H]1O[C@H]1O[C@H](CO)[C@@H](O)[C@H](N)[C@H]1O [AMK, amikacin, reference compound]"
  experimentalTarget: "VRE"
  MIC (µM): 125
- compound: "C/C(=N\\NC(=N)N)c1ccc(/C(C)=N/NC(=N)N)cc1.Cl.Cl [Compound 4G, dihydrochloride]"
  experimentalTarget: "VRE"
  MIC (µM): 125
- compound: "Cl.N=C(N)N/N=C/c1ccc(-c2ccc(/C=N/Nc3ccccc3Br)cc2)cc1 [Compound 7Ab, monohydrochloride]"
  experimentalTarget: "VRE"
  MIC (µM): 2
- compound: "C/C(=N\\NC(=N)N)c1ccc(-c2ccc(/C(C)=N/Nc3ccccc3Cl)cc2)cc1.Cl [Compound 8Aa, hydrochloride]"
  experimentalTarget: "VRE"
  MIC (µM): 3.9
- compound: "C/C(=N\\NC(=N)N)c1ccc(Cc2ccc(/C(C)=N/NC(=N)N)cc2)cc1.Cl.Cl [Compound 4C, dihydrochloride]"
  experimentalTarget: "VRE"
  MIC (µM): 2

* * *

System: C. albicans ATCC 1237
Assay: Antifungal MIC, CLSI M27-A3 microbroth dilution
Type: cell-based, Candida albicans
Conditions: Candida albicans, ATCC1237, C. albicans ATCC 1237, resistant to FLC, ITC, and VOR; converted from μg/mL; read-out: MIC
valueType: MIC (µM)

- molecule: "C/C(=N\\NC(=N)N)c1ccc(-c2ccc(/C(C)=N/NC(=N)N)cc2)cc1.Cl.Cl [Compound 4A, dihydrochloride]"
  readoutUnit: "µM"
  valueRelationSign: ">"
  numericResult: 73.9
- molecule: "C/C(=N\\NC(=N)N)c1ccc(/C(C)=N/NC(=N)N)cc1.Cl.Cl [Compound 4G, dihydrochloride]"
  readoutUnit: "µM"
  valueRelationSign: ">"
  numericResult: 90.1
- molecule: "C/C(=N\\NC(=N)N)c1ccc(CCc2ccc(/C(C)=N/NC(=N)N)cc2)cc1.Cl.Cl [Compound 4D, dihydrochloride]"
  readoutUnit: "µM"
  valueRelationSign: "="
  numericResult: 34.6
- molecule: "Cl.Cl.N=C(N)N/N=C/c1ccc(-c2cccc(/C=N/NC(=N)N)c2)cc1 [Compound 3B, dihydrochloride]"
  readoutUnit: "µM"
  valueRelationSign: "="
  numericResult: 9.9

* * *

Test system: K. pneumoniae ATCC 27736
Assay: Antibacterial MIC, double-dilution method
Format: cell-based
Conditions: Klebsiella pneumoniae, ATCC27736; strain H, Gram-negative; range 0.5 to 500 μM; read-out: MIC

- compound: "Cl.N=C(N)N/N=C/c1ccc(-c2ccc(/C=N/Nc3ccc(F)cc3F)cc2)cc1 [Compound 7Af, monohydrochloride]"
  MIC: "> 500 µM"
- compound: "C/C(=N\\NC(=N)N)c1ccc(/C(C)=N/NC(=N)N)cc1.Cl.Cl [Compound 4G, dihydrochloride]"
  MIC: "500 µM"
- compound: "C/C(=N\\NC(=N)N)c1cccc(/C(C)=N/NC(=N)N)c1.Cl.Cl [Compound 4H, dihydrochloride]"
  MIC: "> 500 µM"
- compound: "C/C(=N\\NC(=N)N)c1ccc(Oc2ccc(/C(C)=N/NC(=N)N)cc2)cc1.Cl.Cl [Compound 4E, dihydrochloride]"
  MIC: "62.5 µM"
- compound: "CC1(C)S[C@@H]2[C@H](NC(=O)[C@H](N)c3ccccc3)C(=O)N2[C@H]1C(=O)O [AMP, ampicillin, reference compound]"
  MIC: "> 250 µM"
- compound: "Cl.N=C(N)N/N=C/c1ccc(-c2ccc(C=NNc3ccccc3Cl)cc2)cc1 (mixture of isomers) [Compound 7Aa, monohydrochloride]"
  MIC: "> 500 µM"
- compound: "C/C(=N\\NC(=N)N)c1ccc2c(c1)Cc1cc(/C(C)=N/NC(=N)N)ccc1-2.Cl.Cl [Compound 4F, dihydrochloride]"
  MIC: "31.3 to 62.5 µM"

* * *

Test system: K. pneumoniae ATCC 27736
Assay: Antibacterial MIC, double-dilution method
Type: cell-based
Settings: Klebsiella pneumoniae, ATCC27736; strain H, Gram-negative; range 0.5 to 500 μM; read-out: MIC
# maps each entry to its MIC
valueType: MIC

- compound: "Cl.Cl.N=C(N)N/N=C/c1ccc(-c2cccc(/C=N/NC(=N)N)c2)cc1 [Compound 3B, dihydrochloride]"
  result: "> 500 µM"
- compound: "C/C(=N\\NC(=N)N)c1ccc(Cc2ccc(/C(C)=N/NC(=N)N)cc2)cc1.Cl.Cl [Compound 4C, dihydrochloride]"
  result: "> 500 µM"
- compound: "Cl.N=C(N)N/N=C/c1ccc(-c2ccc(/C=N/Nc3ccc(Cl)cc3)cc2)cc1 [Compound 7Ad, monohydrochloride]"
  result: "> 500 µM"
- compound: "Cl.N=C(N)N/N=C/c1ccc(-c2ccc(/C=N/Nc3ccc(Cl)cc3Cl)cc2)cc1 [Compound 7Ag, hydrochloride]"
  result: "> 500 µM"
- compound: "C/C(=N\\NC(=N)N)c1ccc(-c2ccc(/C(C)=N/NC(=N)N)cc2)cc1.Cl.Cl [Compound 4A, dihydrochloride]"
  result: "15.6 µM"
- compound: "Cl.N=C(N)N/N=C/c1ccc(-c2ccc(/C=N/Nc3ccccc3Br)cc2)cc1 [Compound 7Ab, monohydrochloride]"
  result: "> 500 µM"
- compound: "CC1COc2c(N3CCN(C)CC3)c(F)cc3c(=O)c(C(=O)O)cn1c23 (stereo not shown) [OFX, ofloxacin, reference compound]"
  result: "15.6 to 31.3 µM"

* * *

Assay: Mammalian cell cytotoxicity, resazurin
Format: cell-based
Conditions: human, BEAS-2B
valueType: IC50 at 24 h

- compound: "Cl.N=C(N)N/N=C/c1ccc(-c2ccc(/C=N/Nc3ccc(F)cc3)cc2)cc1 [Compound 7Ac, monohydrochloride]"
  valueType: "IC50 at 24 h"
  result: "7.8 to 15.6 µg/mL"

* * *

# maps each entry to its MIC
Tested on: C. albicans ATCC 10231
Test: Antifungal MIC, CLSI M27-A3 microbroth dilution
Assay type: cell-based, Candida albicans
Settings: Candida albicans, ATCC10231; C. albicans ATCC 10231, resistant to FLC, ITC, and VOR; converted from μg/mL; read-out: MIC

- compound: "C/C(=N\\NC(=N)N)c1ccc(/C(C)=N/NC(=N)N)cc1.Cl.Cl [Compound 4G, dihydrochloride]"
  valueRelationSign: ">"
  MIC [µM]: 90.1
- compound: "C/C(=N\\NC(=N)N)c1ccc(Cc2ccc(/C(C)=N/NC(=N)N)cc2)cc1.Cl.Cl [Compound 4C, dihydrochloride]"
  valueRelationSign: "="
  MIC [µM]: 17.8
- compound: "C/C(=N\\NC(=N)N)c1ccc(Oc2ccc(/C(C)=N/NC(=N)N)cc2)cc1.Cl.Cl [Compound 4E, dihydrochloride]"
  valueRelationSign: "="
  MIC [µM]: 17.8
- compound: "Cl.N=C(N)N/N=C/c1ccc(-c2ccc(/C=N/Nc3ccc(F)cc3F)cc2)cc1 [Compound 7Af, monohydrochloride]"
  valueRelationSign: "="
  MIC [µM]: 2.3
- compound: "Cl.N=C(N)N/N=C/c1ccc(-c2ccc(/C=N/Nc3ccccc3Br)cc2)cc1 [Compound 7Ab, monohydrochloride]"
  valueRelationSign: "="
  MIC [µM]: 4.1
- compound: "Cl.N=C(N)N/N=C/c1ccc(-c2ccc(/C=N/Nc3ccc(Cl)cc3)cc2)cc1 [Compound 7Ad, monohydrochloride]"
  valueRelationSign: "="
  MIC [µM]: 18.3
- compound: "C/C(=N\\NC(=N)N)c1cccc(/C(C)=N/NC(=N)N)c1.Cl.Cl [Compound 4H, dihydrochloride]"
  valueRelationSign: ">"
  MIC [µM]: 90.1
- compound: "C/C(=N\\NC(=N)N)c1ccc(-c2ccc(/C(C)=N/Nc3ccccc3Cl)cc2)cc1.Cl [Compound 8Aa, hydrochloride]"
  valueRelationSign: "="
  MIC [µM]: 34.3
- compound: "Cl.Cl.N=C(N)N/N=C/c1ccc(-c2ccc(/C=N/NC(=N)N)cc2)cc1 [Compound 3A, dihydrochloride]"
  valueRelationSign: "="
  MIC [µM]: 39.5
- compound: "Cl.N#Cc1ccc(N/N=C/c2ccc(-c3ccc(/C=N/NC(=N)N)cc3)cc2)cc1 [Compound 7Ae, monohydrochloride]"
  valueRelationSign: "="
  MIC [µM]: 37.3

* * *

System: VRE
Assay: Antibacterial MIC, double-dilution method
Assay type: cell-based
Details: Enterococcus, strain D, Gram-positive, range 0.5 to 500 μM, read-out: MIC
valueType: MIC (µM)

- compound: "C/C(=N\\NC(=N)N)c1ccc(CCc2ccc(/C(C)=N/NC(=N)N)cc2)cc1.Cl.Cl [Compound 4D, dihydrochloride]"
  numericResult: 1
- compound: "C/C(=N\\NC(=N)N)c1cccc(/C(C)=N/NC(=N)N)c1.Cl.Cl [Compound 4H, dihydrochloride]"
  numericResult: 125
- compound: "C/C(=N\\NC(=N)N)c1ccc(Oc2ccc(/C(C)=N/NC(=N)N)cc2)cc1.Cl.Cl [Compound 4E, dihydrochloride]"
  numericResult: 3.9
- compound: "Cl.Cl.N=C(N)N/N=C/c1ccc(-c2ccc(/C=N/NC(=N)N)cc2)cc1 [Compound 3A, dihydrochloride]"
  numericResult: 2
